B1: Pistol ribozyme (parent)
chain: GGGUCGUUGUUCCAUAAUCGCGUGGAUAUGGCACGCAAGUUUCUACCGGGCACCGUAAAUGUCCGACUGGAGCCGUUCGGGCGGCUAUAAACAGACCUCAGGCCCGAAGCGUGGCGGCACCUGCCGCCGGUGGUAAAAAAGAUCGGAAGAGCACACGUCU

Variants of: B1
Assay: aptazyme ON/OFF ratio, guanine; higher = stronger switching; co-transcriptional cleavage with and without guanine
Parameter Measured: aptazyme ON/OFF ratio

Inquiry: Input U8A G9C U10G U11C C13G , output reported aptazyme ON/OFF ratio.
Reply text: 1.06

Inquiry: Input U8C U10G U11G C12G , output reported aptazyme ON/OFF ratio.
Reply text: 1.25

Inquiry: Input U8A U10G C12G C13U , output reported aptazyme ON/OFF ratio.
Reply text: 1.34

Inquiry: Input U8G G9A U10C C13G , output reported aptazyme ON/OFF ratio.
Reply text: 1.03

Inquiry: Input U7C U8A G9A U10C C12G C13U , output reported aptazyme ON/OFF ratio.
Reply text: 1.19

Inquiry: Input U7G U8A G9C C13U , output reported aptazyme ON/OFF ratio.
Reply text: 1.04

Inquiry: Input U7A U10G U11A , output reported aptazyme ON/OFF ratio.
Reply text: 1.06

Inquiry: Input U7C U8A G9U U11A C12U C13G , output reported aptazyme ON/OFF ratio.
Reply text: 1.23

Inquiry: Input U7A U8G G9C U10A U11A C12U C13A , output reported aptazyme ON/OFF ratio.
Reply text: 1.42

Inquiry: Input U7C G9U U10C U11C C12U , output reported aptazyme ON/OFF ratio.
Reply text: 1.02

Inquiry: Input U7G U8G G9A U11G C13G , output reported aptazyme ON/OFF ratio.
Reply text: 1.17

Inquiry: Input U7C U8C G9A U10C U11G C13U , output reported aptazyme ON/OFF ratio.
Reply text: 1.32

Inquiry: Input U7A U8C G9C U10G U11C C12A C13A , output reported aptazyme ON/OFF ratio.
Reply text: 1.05

Inquiry: Input U8C G9C U10C , output reported aptazyme ON/OFF ratio.
Reply text: 1.97

Inquiry: Input G9U U10C U11A C12U C13G , output reported aptazyme ON/OFF ratio.
Reply text: 1.35

Inquiry: Input U8C U10C U11G C12G , output reported aptazyme ON/OFF ratio.
Reply text: 1.25

Inquiry: Input G9U U10G C12A C13G , output reported aptazyme ON/OFF ratio.
Reply text: 1.17

Inquiry: Input U8G G9A U10C U11C C12G C13G , output reported aptazyme ON/OFF ratio.
Reply text: 1.1

Inquiry: Input U8C C12G C13G , output reported aptazyme ON/OFF ratio.
Reply text: 1.15

Inquiry: Input U7A U11G C12U C13U , output reported aptazyme ON/OFF ratio.
Reply text: 1.13

Inquiry: Input U8G G9A U10C U11A C13G , output reported aptazyme ON/OFF ratio.
Reply text: 1.06

Inquiry: Input U7C U10C C13G , output reported aptazyme ON/OFF ratio.
Reply text: 1.28
